# Assayed System: Platelet-activating factor acetylhydrolase 2, cytoplasmic (Homo sapiens) (UniProt Q99487)
# Protocol Notes: inhibition of cytoplasmic PAF acetylhydrolase 2 – biochemical, fluorescence polarization, human, primary screen (AID 492956);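 further: inhibitors block probe labeling of enzyme so polarization drops; 0% = enzyme with DMSO and 100% = wells lacking PAFAH2 protein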
# Setup Conditions: recombinant PAFAH2, FP-rhodamine activity probe, at 3.39 µM, active compounds read high
The whole screen tested about 340,000 compounds, of which about 3,300 (0.97%) were called active. The entries come from a sample that favours actives as a whole.
Reported inhibition is given for each of the following compounds.
Measured Endpoint: inhibition (%)

Compound	Unit Text	Endpoint Value
O=C(COC(=O)COc1ccccc1F)Nc1cccc(S(=O)(=O)N2CCCCC2)c1	%	-7.67
COc1cc(CCC(=O)OCC(=O)Nc2cccc(S(N)(=O)=O)c2)cc(OC)c1OC	%	8.16
Cc1ccc(C)c(NC(=O)C2Cc3ccccc3CN2C(=O)OCc2ccccc2)c1 (stereo not drawn)	%	5.89

* * *

# Assayed System: Platelet-activating factor acetylhydrolase 2, cytoplasmic (Homo sapiens) (UniProt Q99487)
# Protocol Notes: inhibition of cytoplasmic PAF acetylhydrolase 2 – biochemical, fluorescence polarization, human, primary screen (AID 492956);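 further: inhibitors block probe labeling of enzyme so polarization drops; 0% = enzyme with DMSO and 100% = wells lacking PAFAH2 protein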
# Setup Conditions: recombinant PAFAH2, FP-rhodamine activity probe, at 3.39 µM, active compounds read high
Hit rate of the full screen: of about 340,000 compounds, about 3,300 (0.97%) were called active. This is one part of a sample in which actives are shown more often than they occur.

Compound	inhibition (%)
O=C(CSC1=Nc2ccccc2C2=NC(c3ccccc3)C(=O)N12)NCC1CCCO1 (centres undefined)	7.84
COC(=O)C1=C(C)NC(=S)NC1c1ccc(OCC(=O)N2CC(C)OC(C)C2)c(OC)c1 (centres undefined)	-0.58
O=C(COC(=O)/C=C/c1nc2ccccc2s1)Nc1ccccc1Oc1ccccc1	-12.4
O=C(Nc1ccc(-c2cscn2)cc1)C1CCCN(Cc2ccc(CO)o2)C1 (centres undefined)	-10.4
Cc1c(C)c2c(OCC(=O)NCCCO)cc3c(c2oc1=O)CCC(C)(C)O3	72.5
CC(C)C1N=C2c3ccccc3N=C(SCC(=O)c3ccc(O)c(O)c3)N2C1=O (centres undefined)	43.8
COc1ccc(-c2nnc(SCC(=O)Nc3cccnc3Cl)n2C)cc1	0.74
CCCCn1c(N)c(N(Cc2ccccc2OC)C(=O)COc2cc(C)ccc2Cl)c(=O)[nH]c1=O	-1.09
Cc1cc(=O)oc2c3c(cc(OCC(=O)N[C@H](C(=O)O)c4ccccc4)c12)OC(C)(C)CC3	18.3
Cc1cc(=O)oc2c3c(cc(OCC(=O)NCCC(=O)N[C@@H](C)C(=O)O)c12)OC(C)(C)CC3	6.3
CCc1cc(=O)oc2c(C)c(OCC(=O)N3CC[C@@]4(O)CCCC[C@H]4C3)ccc12	-2.6
CCCC1OC23CCCCC2C(C#N)(C#N)C1(C#N)C(=N)O3 (centres undefined)	35.4
CCCN(CC1CC1)C(=O)COC(=O)c1ccc(C)cc1O	6.82
CC(C)C(=O)NCC(c1cccs1)S(=O)(=O)c1ccc(F)cc1 (centres undefined)	-6.08

* * *

# Assayed System: Platelet-activating factor acetylhydrolase 2, cytoplasmic (Homo sapiens) (UniProt Q99487)
# Protocol Notes: inhibition of cytoplasmic PAF acetylhydrolase 2 – biochemical, fluorescence polarization, human, primary screen (AID 492956);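 further: inhibitors block probe labeling of enzyme so polarization drops; 0% = enzyme with DMSO and 100% = wells lacking PAFAH2 protein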
# Setup Conditions: recombinant PAFAH2, FP-rhodamine activity probe, at 3.39 µM
Out of some 340,000 compounds screened, about 3,300 (0.97%) were called active.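 Rule for the calls: active = inhibition above the mean over all tested compounds plus 3 SD (cut at about 30% in these data); inactive = the rest.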 The list comes from a sample in which actives are over-represented; it also holds close analogues and randomly drawn compounds.
Outcomes: active, inactive

Compound	Class Assignment
O=C(COC(=O)c1ccccc1SCC(=O)N1CCCC1)Nc1ccccc1OC(F)F	active
CCOC(=O)C1CCCN(C(=O)c2ccc(C)c(S(=O)(=O)N3CCCCC3)c2)C1 (configuration not stated)	inactive
Cc1ccc(-n2ncc3c(=O)n(-c4ccc(C)c(C)c4)c(-c4ccco4)nc32)cc1	inactive
O=C(O)Cc1csc(NC(=O)CSc2nnnn2-c2ccc(O)cc2)n1	inactive
Cc1cc(C(=O)COC(=O)C2CC2)c(C)n1-c1ccc(F)cc1	active
Cc1ccn2c(=O)nc(SCC(=O)NCc3ccc4c(c3)OCO4)nc2c1	inactive
S=c1[nH]nc(/C=C/c2ccccc2)o1	inactive
O=S(=O)(O)c1cc2onnc2c2ccccc12	inactive
COCCNC(=O)/C(C#N)=C/c1nc(N(C)C)n(-c2ccc(F)cc2)c1Cl	inactive
COc1ccc(NC(=O)CCCC(=O)c2ccccc2)cc1	inactive
Cc1ccc(-n2c(C)cc(C(=O)CN3C(=O)C(=O)N(C4CCCC4)C3=O)c2C)cc1	inactive
O=C(COC(=O)c1c2c(nc3ccccc13)CCCC2)c1ccc(Br)s1	inactive
CC(=O)c1c(N2CCN(c3ccc(F)cc3)CC2)nc(=S)n(-c2ccccc2)c1C	inactive
CC(C)N(Cc1ccccc1)C(=O)COC(=O)c1ccccc1SCC(=O)N1CCCC1	inactive
Cn1cccc1C(=O)OCC(=O)NCCc1ccccc1	inactive
OC(CN1C2=NCCCN2c2ccccc21)c1ccc(Br)cc1 (configuration not stated)	inactive
O=C(O)c1ccc(NN=CC2=C(N3CCOCC3)/C(=C/c3ccccc3)CC2)cc1	inactive
CS(=O)(=O)Nc1ccccc1C(=O)OCC(=O)NC1CC1	inactive
O=C(OCCOc1ccccc1F)c1cc(S(=O)(=O)N2CCOCC2)ccc1F	inactive
CC(NC(=O)CN1CCN(Cc2ccc(Cl)cc2)C1=O)c1ccc2c(c1)OCCO2 (configuration not stated)	inactive
CCOc1cccc(/C=N/N2C(=O)CSC2=S)c1O	inactive
Cc1cc(C)cc(C(=O)NC(=S)Nc2ccc3[nH]c(=O)[nH]c3c2)c1	inactive
COCCNC(=O)/C(C#N)=C/c1cccc(OCc2ccccc2)c1	active
O=C1CSC(=S)N1/N=C/c1ccc(O)c([N+](=O)[O-])c1	active
NNC(=O)C1CC(O)CN1S(=O)(=O)c1ccc(Cl)cc1 (configuration not stated)	inactive
CC(C)(C)NC(=O)CSc1nnc(NC(=O)CCc2ccccc2)s1	inactive
O=C(c1ccc(F)cc1)N1CCCC(C(=O)N2CCCCC2)C1 (configuration not stated)	inactive
Cc1cc(C(=O)N/N=C/c2ccc(O)c([N+](=O)[O-])c2)c(C)n1-c1ccc(F)cc1	inactive
OCC[C@H]1C[C@H](O)[C@@H](O)[C@]2(Cc3ccccc3CO2)O1	inactive
O=C(C1CCN(S(=O)(=O)Cc2ccccc2)CC1)N1CCCc2ccccc21	inactive
Cc1cccc(C2C3=C(CCCC3=O)N=C3c4ccccc4C(=O)C32)c1 (configuration not stated)	inactive
CCCN(CC(=O)Nc1ccccc1C)C(=O)c1ccc2[nH]c3c(c2c1)CC(C)CC3 (configuration not stated)	inactive
Cc1ccc(-c2nc3c(cnn3-c3ccccc3)c(=O)o2)cc1	active
O=C(NC1CCCC1)C1CC(=O)N(c2ccc(F)cc2)C1 (configuration not stated)	inactive
COc1ccc(CCNC(=O)CN(C)S(=O)(=O)c2ccc3nc(C)sc3c2)cc1OC	inactive
O=C(COC(=O)c1ccccc1Cl)NC1CCCCCCC1	active
CC(=O)Cn1cnc2c(cnn2-c2ccccc2)c1=O	inactive

* * *

# Assayed System: Platelet-activating factor acetylhydrolase 2, cytoplasmic (Homo sapiens) (UniProt Q99487)
# Protocol Notes: inhibition of cytoplasmic PAF acetylhydrolase 2 – biochemical, fluorescence polarization, human, primary screen (AID 492956);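 further: inhibitors block probe labeling of enzyme so polarization drops; 0% = enzyme with DMSO and 100% = wells lacking PAFAH2 protein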
# Setup Conditions: recombinant PAFAH2, FP-rhodamine activity probe, at 3.39 µM, active compounds read high
In all, about 340,000 compounds went through this assay and about 3,300 (0.97%) were called active. What follows is part of a selection rich in actives, with near analogues and random picks from the rest.

Compound	inhibition
O=C(COC(=O)c1ccc2c(c1)OCCO2)NCc1ccccc1Cl	85.4% (active)
C=CCC(NCCCO)c1cccc(OC)c1OC (stereo not drawn)	5.85% (inactive)
O=C(COC(=O)c1n[nH]c2ccccc12)Nc1ccccc1Br	47.3% (active)
O=C(COC(=O)c1cc([N+](=O)[O-])ccc1NCc1ccccc1)NC1CCCCC1	9.35% (inactive)
COc1ccc(C(=O)n2nc(-c3ccc(Cl)cc3)nc2N)cc1OC	3.15% (inactive)
CC(=O)NS(=O)(=O)c1ccccc1	-3.11% (inactive)
Cc1ccc(C(=O)NCC(=O)OCC(=O)NC2CCCCCCC2)cc1	-6.95% (inactive)
O=C(COC(=O)c1ccc(Cl)nc1)NCc1ccc2c(c1)OCO2	5.61% (inactive)
COc1ccc(NC(=O)COC(=O)c2n[nH]c3ccccc23)c(OC)c1	7.22% (inactive)
CC1CCCCC1NC(=O)CCS(=O)(=O)c1ccc2c(c1)NC(=O)CO2 (stereo not drawn)	26.2% (inactive)
CSc1ccc(-c2c(C#N)c(N)nc3c2c(C)nn3-c2ccccc2)cc1	-18.9% (inactive)
CCN(CC)CCCN1C(=O)C(=O)/C(=C(/O)c2c(C)nc3ccccn23)C1c1ccc(C)o1 (stereo not drawn)	-8% (inactive)
CC(=O)Nc1ccc(SC[C@H](Cc2ccccc2)N2CC[C@@H](C)CCC2=O)cc1	1.61% (inactive)
COc1ccc(NS(=O)(=O)c2ccc(O)c(C(=O)OCC(=O)NC3CCCCC3)c2)cc1	41% (active)
CCOC(=O)C1=C(CNC2CCCCC2)NC(=O)NC1c1cc(C)ccc1C (stereo not drawn)	-10.1% (inactive)
CCOc1ccc(CCNC(=O)C2=C(C)C(=O)OC23CCC(C)CC3)cc1OCC (stereo not drawn)	5.73% (inactive)
C(#CCN1CCOCC1)CCCN1CCOCC1	6.41% (inactive)
O=c1[nH]n(-c2ccc([N+](=O)[O-])cc2)c(=O)c2ccccc12	32.5% (active)
O=C(OCc1ccccc1F)c1ccc2c(c1)OCCO2	14.7% (inactive)
Cc1ccc(OCC(=O)Nc2ccccc2Sc2ccc(Cl)cc2)c([N+](=O)[O-])n1	0.47% (inactive)
CN(C)C(=O)c1ccc(NC(=O)COC(=O)c2cc3c(s2)CCCCC3)cc1	22.8% (inactive)
O=C(COC(=O)c1ccc2c(c1)OCCO2)NCc1ccccc1	51.5% (active)
O=C(COC(=O)c1ccccc1SCC(=O)NC1CCCCC1)NC1CCCCC1	59.5% (active)
CC(=O)Nc1cccc(C(=O)OCC(=O)c2ccc3c(c2)OCO3)c1	-2.44% (inactive)
CCOC(=O)c1cccc(NC(=O)CCn2nnc3ccccc32)c1	-12.2% (inactive)
N#Cc1ccc(C(=O)OCC(=O)NC(=O)NC2CCCCC2)cc1	6.68% (inactive)
O=C(NCc1ccccc1Cl)c1csc2c1CCCCC2	3.83% (inactive)
CCCCn1ccnc1C(=O)c1cccc(S(=O)(=O)N2c3ccccc3CC2C)c1 (stereo not drawn)	0.31% (inactive)
